Task for the reader: assign each of the following molecules its reported normalized growth.
assay: chemical genetic growth profiling, strain panel (AID 1159580);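 further: tested at 20 µM; growth read once vehicle control cultures reached saturation at 30 °C; 1 = growth at the plate median or of vehicle wells; lower values mean less growth of the strain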; conditions: S. cerevisiae deletion strains, growth OD, locus YNL271C, strain bni1, hits give low values
In all, about 5,500 compounds went through this assay and about 2,000 (36%) were called active. Another 18% or so got no clear call; they are omitted. The list shows a part of the results.
Give bare numbers.

Some solved entries appear below for comparison.
molecule: CC1(C)CCC[C@@]2(C)C1[C@@H](O)C[C@]1(C)C2CC[C@@H]2[C@@]3(C)CC[C@H](C(C)(C)O)[C@@H]3CC[C@@]21C (some centres undefined)
normalized growth: 0.997
//
molecule: O=C1NCC2(CCN(CCc3ccccc3)CC2)O1
normalized growth: 1.01

Give normalized growth for each listed item.
1. O=C(O[C@@H]1Cc2c(O)cc(O)cc2O[C@@H]1c1ccc(O)c(O)c1)c1cc(O)c(O)c(O)c1
2. Clc1ccc(C(c2ccc(Cl)cc2)C(Cl)(Cl)Cl)cc1
3. COc1ccc(-c2coc3cc(O)ccc3c2=O)c(OC)c1O

Result block:
1: 1.02; 2: 0.997; 3: 0.987

Give normalized growth for each listed item.
1. CNC(=O)O/N=C(\C)SC
2. O=C(O)/C=C/c1ccc(O)c(O)c1
3. COc1ccc2c(c1)OC/C(=C/c1ccc(OC)c(OC)c1)C2=O
4. CN1CC(=O)N=C1N

Result block:
0.991
0.998
0.971
0.991

Give normalized growth for each listed item.
1. COc1cc([C@@H]2c3cc4c(cc3C(OC3O[C@@H]5COC(C)O[C@H]5[C@H](O)[C@H]3O)C3COC(=O)[C@@H]32)OCO4)cc(OC)c1O (some centres undefined)
2. CC(=O)Oc1cc(OC(C)=O)c2c(c1)O[C@H](c1ccc(OC(C)=O)c(OC(C)=O)c1)[C@H](OC(C)=O)C2
3. CCCCCCCCC(=O)NCc1ccc(O)c(OC)c1
4. CCCCCCCCCCC[C@@H](C[C@H]1OC(=O)[C@H]1CCCCCC)OC(=O)[C@@H](CC(C)C)NC=O

Result block:
0.984
1.02
0.983
1.02

Reference for the values: PubChem BioAssay AID1159580
